PROTOCOL DESCRIPTION: Terminal half life in patient with leishmaniasis at […], po three times a day for 28 days by LC-MS/MS assay
Format: ADME, organism-based
Set-up: route oral
SETTINGS: human, in vivo
OBSERVATION TYPE: half-life

[[record]]
molecule = "CCCCCCCCCCCCCCCCOP(=O)([O-])OCC[N+](C)(C)C [MILTEFOSINE]"
observation_type = "half-life"
experimental_result = "30.9 days"


###

PROTOCOL DESCRIPTION: Cmax in serum of patient with cutaneous leishmaniasis at 2.5 mg/kg, po once a day for 23 days by LC-MS/MS assay
Assay type: ADME, organism-based
Design: dose 2.5 mg/kg, route oral
SETTINGS: human
OBSERVATION TYPE: Cmax (µg/mL)

[[record]]
query_smiles = "CCCCCCCCCCCCCCCCOP(=O)([O-])OCC[N+](C)(C)C"
measurement_unit = "µg/mL"
experimental_result = 70

